The reported measurements were obtained from patent US20240317755A1.

assay: Pharmacokinetic study in mice in vivo (gavage and tail vein injection); conditions: mouse, plasma, po, dose 1 mg/kg
readout-type: AUC(0-t)

O=c1[nH]ncc(N2CCn3c(Cc4ccc(F)cc4C(F)(F)F)cnc3C2)c1Cl [Compound L002]; 625 ng·h/mL
O=C(c1ccc(F)cc1C(F)(F)F)c1cnc2n1CCN(c1cn[nH]c(=O)c1Cl)C2 [Compound 1-6]; 1240 ng·h/mL
O=c1[nH]ncc(N2CCn3c(Cc4ccccc4C(F)(F)F)cnc3C2)c1Cl [Compound L001]; 84.3 ng·h/mL

Attention now turns to another entry.
Task item: AUC(0-t) lookup needed for N#Cc1ccc(Cc2cnc3n2CCN(c2cn[nH]c(=O)c2Cl)C3)c(C(F)(F)F)c1 [Compound L014] , thanks.
Reply: 1070 ng·h/mL
